Reported melting point by item:

Consider the following illustrative entries.
[[record]]
structuresmilesstring = "CCCCn1c(=O)c2ccc3sc4ccccc4c4ccc(c1=O)c2c34"
readoutvalue = "185 to 186 °C"

[[record]]
structuresmilesstring = "O=C1c2cccc3c2c(cc2c4ccccc4sc32)C(=O)N1CCN1CCNCC1"
readoutvalue = "226 to 228 °C"

[[record]]
structuresmilesstring = "CN(C)CCCN1C(=O)c2cccc3c2c(cc2nnsc23)C1=O"
readoutvalue = "101 to 102 °C"

[[record]]
structuresmilesstring = "O=c1c2ccc3sc4ccccc4c4ccc(c(=O)n1CCN1CCNCC1)c2c34"
readoutvalue = "286 to 287 °C"


// next item, melting point requested
Noted for O=C1c2cccc3c2c(cc2nnsc23)C(=O)N1CCN1CCNCC1 : its melting point reads 145 to 146 °C
